Tested on: SK-MEL-2
Experiment: NCI tumour cell line growth inhibition, 48 h
Activity calls are given as the source filed them. No stated cut-off is given here; in the data, active = GI50 up to about 1.1 µM and inactive = higher.
experimental endpoint: GI50

Known results for molecules:
CC(C)CC(=O)OC[n+]1ccc(-c2c(COC(=O)NC(C)C)c(COC(=O)NC(C)C)c3n2CCC3)cc1; > 100 µM (inactive)
C[P+]1(Cc2ccccc2)CCCC1; > 100 µM (inactive)
CN(C)CCNC(=O)c1cccc2c1C(=O)c1ccccc1C2=O; > 37.3 µM (inactive)
Cc1[nH]c(=O)[nH]c(=O)c1C(=O)N(CCO)Cc1ccccc1; > 100 µM (inactive)

Okay, now this molecule:
Sure, the documented GI50 for "CCOC(=O)/C(O)=C/c1cc(OC)cc(=O)o1" is > 100 µM (inactive)
